Parameter 'readout' = IC50; parameter 'system' = Cholinesterase (Equus caballus).

chemical_string: CCN(CC)CCCOC(=O)C[C@@H](C)CC[C@H]1C(CO)=CC[C@H]2C(C)(C)CCC[C@]12C
result_qualifier: =
IC50 [µM]: 18.1
//
chemical_string: CCN(CC)CCOC(=O)C[C@@H](C)CC[C@H]1C(CO)=CC[C@H]2C(C)(C)CCC[C@]12C
result_qualifier: =
IC50 [µM]: 39.9
//
chemical_string: C[C@@H](CC[C@H]1C(CO)=CC[C@H]2C(C)(C)CCC[C@]12C)CC(=O)OCCCCN1CCCCC1
result_qualifier: =
IC50 [µM]: 37.1
//
chemical_string: CCN(CC)CCCCCCOC(=O)C[C@@H](C)CC[C@H]1C(CO)=CC[C@H]2C(C)(C)CCC[C@]12C
result_qualifier: =
IC50 [µM]: 15.2
//
chemical_string: C[C@@H](CC[C@H]1C(CO)=CC[C@H]2C(C)(C)CCC[C@]12C)CC(=O)O
result_qualifier: =
IC50 [µM]: 171
//
chemical_string: C[C@@H](CC[C@H]1C(CO)=CC[C@H]2C(C)(C)CCC[C@]12C)CC(=O)OCCCCCCN1CCCCC1
result_qualifier: =
IC50 [µM]: 10.5
//
chemical_string: C[C@@H](CC[C@H]1C(CO)=CC[C@H]2C(C)(C)CCC[C@]12C)CC(=O)OCCN1CCOCC1
result_qualifier: >
IC50 [µM]: 50
//
chemical_string: CCN(CC)CCCCOC(=O)C[C@@H](C)CC[C@H]1C(CO)=CC[C@H]2C(C)(C)CCC[C@]12C
result_qualifier: =
IC50 [µM]: 23.6

---

biological target: Cholinesterase (Equus caballus, UniProt P81908)
Sequence (P81908 whole entry): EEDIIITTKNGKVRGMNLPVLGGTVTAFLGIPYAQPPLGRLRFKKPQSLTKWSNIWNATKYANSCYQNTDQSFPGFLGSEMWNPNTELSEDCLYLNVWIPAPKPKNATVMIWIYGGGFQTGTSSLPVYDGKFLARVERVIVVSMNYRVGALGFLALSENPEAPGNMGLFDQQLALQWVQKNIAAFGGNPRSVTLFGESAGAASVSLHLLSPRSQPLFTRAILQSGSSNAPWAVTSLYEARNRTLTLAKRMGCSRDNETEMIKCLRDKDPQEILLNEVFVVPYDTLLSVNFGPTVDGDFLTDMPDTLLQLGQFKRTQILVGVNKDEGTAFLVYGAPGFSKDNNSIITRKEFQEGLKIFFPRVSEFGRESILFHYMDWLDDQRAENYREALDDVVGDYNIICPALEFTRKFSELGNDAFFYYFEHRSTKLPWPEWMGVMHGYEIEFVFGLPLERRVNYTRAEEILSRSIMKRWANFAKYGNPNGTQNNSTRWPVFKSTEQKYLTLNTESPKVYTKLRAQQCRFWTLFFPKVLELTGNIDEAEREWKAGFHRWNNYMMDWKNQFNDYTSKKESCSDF
pIC50: −log10 of the molar value.
Entries and their measured pIC50 follow.
measured_endpoint: pIC50

chemical_string: C[C@@H](CC[C@H]1C(CO)=CC[C@H]2C(C)(C)CCC[C@]12C)CC(=O)OCCN1CCCCC1
measured_endpoint: pIC50
result_qualifier: <
result_number: 4.30
--
chemical_string: C[C@@H](CC[C@H]1C(CO)=CC[C@H]2C(C)(C)CCC[C@]12C)CC(=O)OCCCCN1CCCC1
measured_endpoint: pIC50
result_qualifier: =
result_number: 4.99
--
chemical_string: C[C@@H](CC[C@H]1C(CO)=CC[C@H]2C(C)(C)CCC[C@]12C)CC(=O)OCCCCCN1CCCCC1
measured_endpoint: pIC50
result_qualifier: =
result_number: 4.61
--
chemical_string: C[C@@H](CC[C@H]1C(CO)=CC[C@H]2C(C)(C)CCC[C@]12C)CC(=O)OCCCCCN1CCOCC1
measured_endpoint: pIC50
result_qualifier: <
result_number: 4.30

---

Parameter 'readout' = pIC50; parameter 'system' = UniProtKB P04058.
Sequence (P04058 whole entry): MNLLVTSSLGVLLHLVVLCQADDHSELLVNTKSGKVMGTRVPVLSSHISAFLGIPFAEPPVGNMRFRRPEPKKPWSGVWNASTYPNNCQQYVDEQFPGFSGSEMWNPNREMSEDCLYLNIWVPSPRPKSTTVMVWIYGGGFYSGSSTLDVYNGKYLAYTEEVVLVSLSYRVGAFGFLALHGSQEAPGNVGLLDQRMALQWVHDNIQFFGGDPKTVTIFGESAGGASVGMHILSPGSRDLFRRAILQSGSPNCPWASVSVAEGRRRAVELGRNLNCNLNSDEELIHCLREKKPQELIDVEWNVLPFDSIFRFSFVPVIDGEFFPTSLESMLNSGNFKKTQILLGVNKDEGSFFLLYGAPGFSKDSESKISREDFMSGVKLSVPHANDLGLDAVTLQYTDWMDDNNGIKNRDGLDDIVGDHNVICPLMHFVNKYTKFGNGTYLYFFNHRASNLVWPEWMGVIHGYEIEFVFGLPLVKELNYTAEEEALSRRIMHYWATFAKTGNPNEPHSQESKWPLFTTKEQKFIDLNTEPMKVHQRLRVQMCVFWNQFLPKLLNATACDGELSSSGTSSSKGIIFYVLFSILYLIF
pIC50: −log10 of the molar value.

chemical_string: C[C@@H](CC[C@H]1C(CO)=CC[C@H]2C(C)(C)CCC[C@]12C)CC(=O)OCCN1CCCCC1
tgt: UniProtKB P04058
result_qualifier: <
pIC50: 4.30
--
chemical_string: C[C@@H](CC[C@H]1C(CO)=CC[C@H]2C(C)(C)CCC[C@]12C)CC(=O)OCCCCCCN1CCCCC1
tgt: UniProtKB P04058
result_qualifier: =
pIC50: 4.84
--
chemical_string: C[C@@H](CC[C@H]1C(CO)=CC[C@H]2C(C)(C)CCC[C@]12C)CC(=O)OCCCCN1CCOCC1
tgt: UniProtKB P04058
result_qualifier: <
pIC50: 4.30
--
chemical_string: CCN(CC)CCCCCOC(=O)C[C@@H](C)CC[C@H]1C(CO)=CC[C@H]2C(C)(C)CCC[C@]12C
tgt: UniProtKB P04058
result_qualifier: =
pIC50: 4.86
